List of z-score values.
# Measurement notes: FRG1 promoter luciferase signal modulators, primary screen, FRG1 inhibition for FSHD, cell-based, C2C12 myotubes, firefly/Renilla luciferase, luminescence (AID 1084)
# Particulars: higher = more signal, called active from +8 up or from −8 down
Activity calls are given as the source filed them.
Measured attribute: z-score

INSERT INTO measurements (molecule, measured_attribute, recorded_measurement) VALUES
  ('CN1CCC(CCCO)=CC1c1ccc(CN2CCCC2)cc1 (configuration not stated)', 'z-score', '0.745 (inactive)'),
  ('O=C1C=CC(=O)[C@@H]2CC(COc3ccccc3)=C3[C@@H](CCc4ccccc4)OB(O)C[C@@H]3[C@H]12', 'z-score', '-1.29 (inactive)'),
  ('N#Cc1ccc(NN2C(C(O)C3CCCCC3)C=CC3C(=O)N(c4ccccc4)C(=O)C32)cc1 (configuration not stated)', 'z-score', '-0.585 (inactive)'),
  ('COc1cc2c(cc1OC)CN(C(=O)[C@@H]1[C@H]3C(=O)O[C@H](c4ccccc4)[C@H](c4ccccc4)N3[C@H](c3ccccc3OCCO)[C@@]13C(=O)Nc1ccc(C#CCNC(N)=O)cc13)CC2', 'z-score', '0.297 (inactive)'),
  ('CCN(CC)c1ccc(N2CC=CC34O[C@@H]5C=CCCOC(=O)C5[C@H]3C(=O)N(CCCCCO)[C@@H]4C2=O)cc1 (some centres not stated)', 'z-score', '-0.736 (inactive)'),
  ('O=C1O[C@H](c2ccccc2)[C@H](c2ccccc2)N2[C@H]1[C@@H](C(=O)O)[C@]1(C(=O)Nc3ccc(C#CC4=CCCCC4)cc31)[C@H]2c1ccc(OCCO)cc1', 'z-score', '0.448 (inactive)'),
  ('C=CCC(OC(C)=O)[C@@H]1[C@@H](N(Cc2cccc3ccccc23)C(=O)c2ccc(C)cc2)c2cc(OCCCO)ccc2N1C(=O)Cc1ccc(OC)cc1 (some centres not stated)', 'z-score', '-1.71 (inactive)');
